Here, each record is paired with measured IC50 data.
tested on: Rh18 complex spheroid viability, percent test/control; assay: Anticancer human tumor Rh18 cell line growth inhibition [Asc]; details: curve of first compound; second compound 0.1 µM;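 further: spheroids exposed to compound for 7 days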

In the examples that follow, each entry is paired with its recorded IC50.
Request: Give the reported IC50 for NC1CCC(NC2CC2c2ccccc2)CC1 (stereo not drawn) + CNC(C)C(=O)NC1CN(S(=O)(=O)c2cccc(S(=O)(=O)N3CCC4CCC(C(=O)NC(c5ccccc5)c5ccccc5)N4C(=O)C(NC(=O)C(C)NC)C3)c2)CCC2CCC(C(=O)NC(c3ccccc3)c3ccccc3)N2C1=O (system: Rh18 complex spheroid viability, percent test/control).
Response: < 0.316 nM

Request: Moving on to the next compound: CCN1CCN(Cc2ccc(Nc3ncc(F)c(-c4cc(F)c5nc(C)n(C(C)C)c5c4)n3)nc2)CC1 + CNC(C)C(=O)NC1CN(S(=O)(=O)c2cccc(S(=O)(=O)N3CCC4CCC(C(=O)NC(c5ccccc5)c5ccccc5)N4C(=O)C(NC(=O)C(C)NC)C3)c2)CCC2CCC(C(=O)NC(c3ccccc3)c3ccccc3)N2C1=O
Response: < 3.16 nM

Next up:
Request: Given the entry C=CC(=O)N1CCN(c2nc(=O)n(-c3c(C)ccnc3C(C)C)c3nc(-c4c(O)cccc4F)c(F)cc23)C(C)C1 (stereo not drawn) + Cc1c(S(C)(=O)=O)c(-c2cc(F)cc(N3CCN(c4ccc(NS(=O)(=O)c5ccc(NC(CCN6CCC(C(=O)OCCCP(=O)(O)O)CC6)CSc6ccccc6)c(S(=O)(=O)C(F)(F)F)c5)cc4)CC3)c2)c(-c2ccc(Cl)cc2)n1C(C)C , what IC50 was observed with Rh18 complex spheroid viability, percent test/control?
Response: < 31.6 nM
